Each entry below lists one item and its recorded normalized growth value.
# Experiment Notes: chemical genetic growth profiling, strain panel (AID 1159580);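 further: tested at 20 µM; growth read once vehicle control cultures reached saturation at 30 °C; 1 = growth at the plate median or of vehicle wells; lower values mean less growth of the strain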
# Test Conditions: S. cerevisiae deletion strains, growth OD, locus YOR061W, strain CKA2, active compounds read low
Out of some 5,500 compounds screened, about 2,000 (36%) were called active. About 18% were inconclusive and are not listed. The list shows a part of the results. Where a SMILES comes first, the peptide text is derived from it. Side-chain parts run from the residue outwards. [ ]: non-standard residue; d: D form. The star is where a group is joined. X1 = CCC(C)C(N)C1=NC(C(=O)*)CS1; Orn = NCCC[CH](N)C(=O)O
Measurement Name: normalized growth

- Compound: "COc1cc2cc3c4cc(OC)c(OC)cc4cc[n+]3c(C)c2cc1OC"
  Assay Value: 1.01
- Compound: "COc1cccc(OC)c1C(=O)N[C@@H]1C(=O)N2[C@@H]1SC(C)(C)[C@@H]2C(=O)O"
  Assay Value: 1
- Compound: "COc1ccc(C2C(=O)c3ccccc3C2=O)cc1"
  Assay Value: 0.999
- Compound: "COc1ccc(C2CC(c3ccc(C)cc3C)=NN2C(C)=O)cc1 (centres undefined)"
  Assay Value: 0.881
- Compound: "CC(=O)OCC(=O)[C@@]12OC3(CCCC3)O[C@@H]1CC1C3CCC4=CC(=O)C=C[C@]4(C)[C@@]3(F)[C@@H](O)C[C@@]12C (some centres undefined)"
  Assay Value: 1.01
- Compound: "CC1(C)C(=O)[C@@H]2O[C@@H]2[C@@]2(C)C1CC(=O)[C@]1(C)C2CC[C@@]2(C)[C@H](c3ccoc3)OC(=O)[C@H]3O[C@]321 (some centres undefined)"
  Assay Value: 0.977
- Compound: "CC(C)(C)C(=O)c1sc2sc(C(=O)C(C)(C)C)c(N)c2c1N"
  Assay Value: 0.915
- Compound: "COc1cc2c(cc1OC)[C@@]13CCN4CC5=CCOC6CC(=O)N2C1[C@H]6[C@H]5C[C@H]43 (some centres undefined)"
  Assay Value: 1.01
- Compound: "O=C1c2ccccc2C(=O)C1c1ccccc1"
  Assay Value: 1
- Compound: "CC(=O)Oc1cccc(C(=O)O)c1OC(C)=O"
  Assay Value: 1.01
- Compound: "CCC(C)C(N)C1=NC(C(=O)NC(CC(C)C)C(=O)NC(CCC(=O)O)C(=O)NC(C(=O)NCCCCC2NC(=O)C(CC(N)=O)NC(=O)C(CC(=O)O)NC(=O)C(Cc3cnc[nH]3)NC(=O)C(Cc3ccccc3)NC(=O)C(C(C)CC)NC(=O)C(CCCN)NC2=O)C(C)CC)CS1 (stereo not drawn) (cyclo(DNK([Ile-Glu-Leu-X1])[Orn]IFH); configuration not given here)"
  Assay Value: 1.01
- Compound: "Cc1onc(-c2ccccc2Cl)c1C(=O)N[C@@H]1C(=O)N2[C@@H]1SC(C)(C)[C@@H]2C(=O)O"
  Assay Value: 1.01
- Compound: "NC[C@H]1O[C@H](O[C@H]2[C@H](O)[C@@H](O[C@H]3O[C@H](CO)[C@@H](O)[C@H](N)[C@H]3O)[C@H](N)C[C@@H]2N)[C@H](N)C[C@@H]1O"
  Assay Value: 1.01
- Compound: "CC(C)CC1NC(=O)C(CCCN)NC(=O)C(C(C)C)NC(=O)C2CCCN2C(=O)C(Cc2ccccc2)NC(=O)C(CC(C)C)NC(=O)C(CCCN)NC(=O)C(C(C)C)NC(=O)C2CCCN2C(=O)C(Cc2ccccc2)NC1=O (centres undefined) (cyclo(FPV[Orn]LFPV[Orn]L); configuration not given here)"
  Assay Value: 1

Ref: PubChem BioAssay AID1159580
